Target: peroxisome proliferator-activated receptor-α (PPARα) (Homo sapiens)
Sequence (Q07869 196-468 limits assumed): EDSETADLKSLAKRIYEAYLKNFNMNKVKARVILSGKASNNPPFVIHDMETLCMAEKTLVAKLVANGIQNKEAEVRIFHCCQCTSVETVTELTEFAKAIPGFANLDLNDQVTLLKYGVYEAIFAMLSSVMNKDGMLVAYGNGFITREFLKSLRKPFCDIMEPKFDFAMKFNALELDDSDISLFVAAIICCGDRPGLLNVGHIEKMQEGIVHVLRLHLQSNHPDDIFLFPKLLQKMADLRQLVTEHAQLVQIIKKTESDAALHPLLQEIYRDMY
Assay: GAL4-PPARα LBD one-hybrid luciferase transactivation assay in HEK293 cells
measured.metric: EC50 (µM)

- compound: "CCCCCCCC[C@@H](O)CCCCCCCCC(=O)O [HSA, (R)‐10‐hydroxyoctadecanoic acid]"
  unit: "µM"
  measured.result: 5.43
